Each entry below carries its recorded pKd.
Molecular target: BRAF (V600E) (Homo sapiens, UniProt P15056, V600E)
Sequence (P15056 whole entry V600E): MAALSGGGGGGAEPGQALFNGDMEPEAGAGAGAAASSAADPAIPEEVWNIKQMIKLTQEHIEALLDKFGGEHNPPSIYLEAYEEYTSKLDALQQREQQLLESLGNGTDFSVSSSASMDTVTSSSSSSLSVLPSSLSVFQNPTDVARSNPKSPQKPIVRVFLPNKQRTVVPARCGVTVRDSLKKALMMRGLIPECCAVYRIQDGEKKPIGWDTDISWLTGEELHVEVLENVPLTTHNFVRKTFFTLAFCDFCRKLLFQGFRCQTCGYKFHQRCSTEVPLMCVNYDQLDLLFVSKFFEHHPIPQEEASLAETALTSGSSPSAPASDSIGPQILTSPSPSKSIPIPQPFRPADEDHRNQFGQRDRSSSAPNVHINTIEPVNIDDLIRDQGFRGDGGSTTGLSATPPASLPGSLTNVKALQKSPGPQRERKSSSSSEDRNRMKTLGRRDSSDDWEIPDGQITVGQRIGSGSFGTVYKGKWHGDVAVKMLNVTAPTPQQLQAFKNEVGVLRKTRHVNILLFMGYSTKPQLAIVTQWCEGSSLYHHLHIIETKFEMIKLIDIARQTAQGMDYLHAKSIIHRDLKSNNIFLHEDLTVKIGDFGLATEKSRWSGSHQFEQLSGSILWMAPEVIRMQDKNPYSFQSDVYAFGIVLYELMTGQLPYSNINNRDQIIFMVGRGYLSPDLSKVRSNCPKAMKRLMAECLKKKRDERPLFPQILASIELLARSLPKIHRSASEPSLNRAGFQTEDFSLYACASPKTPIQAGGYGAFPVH
Assay: KD BRAF (V600E) (Table 1)
In simple prose, pKd is minus the logarithm base ten of a concentration in moles per litre.

Here is how some compounds turned out for pKd.
CC(C)(C)OC(=O)N1CCCC(CCn2cnc3ccc(Oc4c(F)ccc(NS(=O)(=O)C5CCCC5)c4C#N)cc3c2=O)C1 (stereo not shown) [Example 22] | 7.54
CC(C)(C)OC(=O)NCCCn1cnc2ccc(Oc3c(F)ccc(NS(=O)(=O)C4CCCCC4)c3C#N)cc2c1=O [Example 12] | 7.23
CCN(C)S(=O)(=O)Nc1cccc(Nc2ccc3ncn(CC4CCN(C(C)=O)CC4)c(=O)c3c2)c1C#N [Example 33] | 7.03
N#Cc1c(Nc2ccc3ncn(CCOCc4ccccc4)c(=O)c3c2)cccc1NS(=O)(=O)N1CC[C@@H](F)C1 [Example 36] | 6.56
CN(C1CC1)S(=O)(=O)Nc1cccc(Nc2ccc3ncn(CCCC(=O)OC(C)(C)C)c(=O)c3c2)c1C#N [Example 42] | 6.69
CCN(C)S(=O)(=O)Nc1cccc(Nc2ccc3ncn(CC(=O)NCCOC)c(=O)c3c2)c1C#N [Example 31] | 6.39

Note: attention shifts to another entry.
Param item: CCC(C)S(=O)(=O)Nc1ccc(F)c(Oc2ccc3ncn(CCCNC(=O)OC(C)(C)C)c(=O)c3c2)c1C#N (stereo not shown) [Example 13] ; param system: BRAF (V600E) (Homo sapiens, UniProt P15056, V600E); output pKd: 7.71

---

Recorded measurements of Kd, one per entry
Target: BRAF (V600E) (Homo sapiens, UniProt P15056, V600E)
Assay: KD BRAF (V600E) (Table 1)
Numbers only here, please. The scale is nM.

CCN(C)S(=O)(=O)Nc1cccc(Nc2ccc3ncn(CCOCCOCCNC(=O)OC(C)(C)C)c(=O)c3c2)c1C#N [Example 34] | 247
CN(CCCn1cnc2ccc(Oc3c(F)ccc(NS(=O)(=O)C4CCCC4)c3C#N)cc2c1=O)C(=O)OC(C)(C)C [Example 20] | 9.2
CCN(C)S(=O)(=O)Nc1ccc(F)c(Oc2ccc3ncn(CCC4CCN(C(=O)OC(C)(C)C)CC4)c(=O)c3c2)c1C#N [Example 3] | 162

Measured Kd, CC(C)(C)OC(=O)N1CCC(CCn2cnc3ccc(Oc4c(F)ccc(NS(=O)(=O)C5CCCC5)c4C#N)cc3c2=O)CC1 [Example 17] : 24.6

---

System: P-ERK (ERK phospho-T202/Y204) in HCT116 cells expressing WT BRAF
Experiment: HTRF assay for P-ERK determination in HCT116 cells (BRAF activation)
Type: cell-based
Details: Homo sapiens, HCT-116, drug incubation 1 hour, concentration giving 50% of the maximum activation achieved by Dabrafenib
Catalogue of molecules with associated log10 EC50
Recall that a logarithmic scale is used here: each number is log10 of EC50 in µM.

For orientation, consider the following solved cases.
CC(C)(C)OC(=O)N1CCCC(CCn2cnc3ccc(Oc4c(F)ccc(NS(=O)(=O)N5CCCC5)c4C#N)cc3c2=O)C1 (stereo not drawn) | 0.36
CCC(C)S(=O)(=O)Nc1ccc(F)c(Oc2ccc3ncn(CCCNC(=O)OC(C)(C)C)c(=O)c3c2)c1C#N (stereo not drawn) | 0.45
CC(C)(C)OC(=O)NCCCn1cnc2ccc(Nc3cccc(NS(=O)(=O)N4CC[C@@H](F)C4)c3C#N)cc2c1=O | 0.75
CC(C)(C)OC(=O)N1CCC(CCn2cnc3ccc(Oc4c(F)ccc(NS(=O)(=O)N5CCCC5)c4C#N)cc3c2=O)CC1 | 0.32
CN(Cc1ccc(CCCn2cnc3ccc(Oc4c(F)ccc(NS(=O)(=O)N5CCCC5)c4C#N)cc3c2=O)cc1)C(=O)OC(C)(C)C | -0.34
CCC(C)S(=O)(=O)Nc1ccc(F)c(Oc2ccc3ncn(CCC4CCN(C(=O)OC(C)(C)C)CC4)c(=O)c3c2)c1C#N (stereo not drawn) | 0.61
CN(C1CC1)S(=O)(=O)Nc1cccc(Nc2ccc3ncn(CCCC(=O)OC(C)(C)C)c(=O)c3c2)c1C#N | 0.79
CC(C)(C)OC(=O)N1CCC(CCn2cnc3ccc(Nc4cccc(NS(=O)(=O)N5CC[C@@H](F)C5)c4C#N)cc3c2=O)CC1 | 0.65

Just so you know, measured log10 EC50 for CCN(C)S(=O)(=O)Nc1ccc(F)c(Oc2ccc3ncn(CCN4CCN(C(=O)OC(C)(C)C)CC4)c(=O)c3c2)c1C#N came out at 0.84

// sample CC(C)(C)OC(=O)NCCCn1cnc2ccc(Oc3c(F)ccc(NS(=O)(=O)N4CC[C@@H](F)C4)c3C#N)cc2c1=O , its log10 EC50 was 0.85

// log10 EC50 value for CC(C)(C)OC(=O)NCCCn1cnc2ccc(Oc3c(F)ccc(NS(=O)(=O)N4CCC4)c3C#N)cc2c1=O : -0.20

The recorded log10 EC50 for CC(=O)N(C)CCCn1cnc2ccc(Oc3c(F)ccc(NS(=O)(=O)N4CCCC4)c3C#N)cc2c1=O is 0.63

For CCN(C)S(=O)(=O)Nc1ccc(F)c(Oc2ccc3ncn(CCCC(=O)OC(C)(C)C)c(=O)c3c2)c1C#N the molecule record lists log10 EC50 as 0.37

Entry N#Cc1c(NS(=O)(=O)C2CCCC2)ccc(F)c1Oc1ccc2ncn(CCCc3ccccc3)c(=O)c2c1 ; log10 EC50 = -0.04

For this molecule ( CCN(C)S(=O)(=O)Nc1ccc(F)c(Oc2ccc3ncn(CCC4CCN(C(=O)OC(C)(C)C)CC4)c(=O)c3c2)c1C#N ), measured log10 EC50 is 0.81

Consider N#Cc1c(Nc2ccc3ncn(CCCc4ccccc4)c(=O)c3c2)cccc1NS(=O)(=O)N1CC[C@@H](F)C1 . Its measured log10 EC50 is 0.32

Recorded log10 EC50 (molecule CC(C)(C)OC(=O)N1CCN(CCn2cnc3ccc(Oc4c(F)ccc(NS(=O)(=O)C5CCCC5)c4C#N)cc3c2=O)CC1 ): -0.10

---

System: P-ERK (ERK phospho-T202/Y204) in HCT116 cells expressing WT BRAF
Assay: HTRF assay for P-ERK determination in HCT116 cells (BRAF activation)
Assay type: cell-based
Details: Homo sapiens, HCT-116, drug incubation 1 hour, concentration giving 50% of the maximum activation achieved by Dabrafenib
Below, each of the compounds is paired with its reported EC50 value.
// units = µM; emit number, no label

CC(C)(C)OC(=O)N1CCC(CCn2cnc3ccc(Oc4c(F)ccc(NS(=O)(=O)N5CC[C@@H](F)C5)c4C#N)cc3c2=O)CC1 [Example 2] | 2.25
CCC(C)S(=O)(=O)Nc1ccc(F)c(Oc2ccc3ncn(CCN4CCN(C(=O)OC(C)(C)C)CC4)c(=O)c3c2)c1C#N (stereo not drawn) [Example 29] | 3.67

Here is another compound to look at.
Per the records, this compound ( CC(C)(C)OC(=O)N1CCC(CCn2cnc3ccc(Oc4c(F)ccc(NS(=O)(=O)N5CCCCC5)c4C#N)cc3c2=O)CC1 [Example 18] ) has EC50 equal to 1.46

---

Target: BRAF (wt) (Homo sapiens)
Criterion: Kd strictly less than 8 nM. Met: T. Not met: F.

Reference set, count: 5
CC(C)(C)OC(=O)N1CCC(CCn2cnc3ccc(Oc4c(F)ccc(NS(=O)(=O)N5CCCCC5)c4C#N)cc3c2=O)CC1 [Example 18] | F
CC(=O)N(C)CCCn1cnc2ccc(Oc3c(F)ccc(NS(=O)(=O)C4CCCC4)c3C#N)cc2c1=O [Example 24] | T
CC(=O)N(C)CCCn1cnc2ccc(Oc3c(F)ccc(NS(=O)(=O)N4CCCC4)c3C#N)cc2c1=O [Example 26] | T
CC(C)(C)OC(=O)NCCCn1cnc2ccc(Oc3c(F)ccc(NS(=O)(=O)N4CCCC4)c3C#N)cc2c1=O [Example 5] | T
CC(C)(C)OC(=O)N1CCC(NC(=O)CCCn2cnc3ccc(Nc4cccc(NS(=O)(=O)N5CC[C@@H](F)C5)c4C#N)cc3c2=O)CC1 [Example 41] | T

Then there is this molecule:
(Q) Does the reported Kd of the following molecule sit strictly below 8 nM? CC(C)(C)OC(=O)NCCCn1cnc2ccc(Oc3c(F)ccc(NS(=O)(=O)C4CCCCC4)c3C#N)cc2c1=O [Example 12]
(A) F

---

Target: BRAF (wt) (Homo sapiens, UniProt P15056)
Sequence (P15056 whole entry): as the sequence (P15056 whole entry V600E) above, with E600V counted along it
Where a name gives a salt, the structure may show the parent alone.
The following compounds are listed with their measured pKd values.
Please note pKd is a logarithmic value: minus log10 of concentration in mol/L. Answer with that number alone.

Observe how each entry below is paired with its result.
CN(CCCn1cnc2ccc(Oc3c(F)ccc(NS(=O)(=O)C4CCCC4)c3C#N)cc2c1=O)C(=O)OC(C)(C)C [Example 20] | 8.48
CC(C)(C)OC(=O)N1CCN(CCn2cnc3ccc(Oc4c(F)ccc(NS(=O)(=O)N5CC[C@@H](F)C5)c4C#N)cc3c2=O)CC1 [Example 10] | 8.45
CN(CCNC(=O)CCCn1cnc2ccc(Nc3cccc(NS(=O)(=O)N4CC[C@@H](F)C4)c3C#N)cc2c1=O)C(=O)OC(C)(C)C [Example 45] | 8.47
CC(C)(C)OC(=O)N1CCC(CCn2cnc3ccc(Nc4cccc(NS(=O)(=O)N5CCCC5)c4C#N)cc3c2=O)CC1 [Example 46] | 7.67
N#Cc1c(NS(=O)(=O)C2CCCC2)ccc(F)c1Oc1ccc2ncn(CCCc3ccccc3)c(=O)c2c1 [Example 11] | 7.61
CCN(C)S(=O)(=O)Nc1ccc(F)c(Oc2ccc3ncn(CCC4CCN(C(=O)OC(C)(C)C)CC4)c(=O)c3c2)c1C#N [Example 3] | 7.11

Noted for CCN(C)S(=O)(=O)Nc1cccc(Nc2ccc3ncn(CC(=O)NCCOC)c(=O)c3c2)c1C#N [Example 31] : its pKd reads 6.86

The measured pKd associated with CC(C)(C)OC(=O)N1CCC(CCn2cnc3ccc(Oc4c(F)ccc(NS(=O)(=O)C5CCCC5)c4C#N)cc3c2=O)CC1 [Example 17] reads 7.91

pKd recorded for this compound, CCN(C)S(=O)(=O)Nc1cccc(Nc2ccc3ncn(CCOCCOCCNC(=O)OC(C)(C)C)c(=O)c3c2)c1C#N [Example 34] , is 7.04

Measured pKd of CCN(C)S(=O)(=O)Nc1cccc(Nc2ccc3ncn(CCOCCOCCN)c(=O)c3c2)c1C#N [Example 38, hydrochloride] : 6.76

// pKd value for CCN(C)S(=O)(=O)Nc1cccc(Nc2ccc3ncn(CC4CCN(C(C)=O)CC4)c(=O)c3c2)c1C#N [Example 33] : 7.34

pKd for CC(C)(C)OC(=O)N1CCC(CCn2cnc3ccc(Oc4c(F)ccc(NS(=O)(=O)C5CCC5)c4C#N)cc3c2=O)CC1 [Example 21] is 7.93

Summary for this compound, CN(C1CC1)S(=O)(=O)Nc1cccc(Nc2ccc3ncn(CCCC(=O)OC(C)(C)C)c(=O)c3c2)c1C#N [Example 42] : pKd is 7.10

Record summary for CC(C)(C)OC(=O)N1CCCC(CCn2cnc3ccc(Oc4c(F)ccc(NS(=O)(=O)C5CCCC5)c4C#N)cc3c2=O)C1 (centres unmarked) [Example 22] : reported pKd = 7.55
